human HIF-PHD3 (Homo sapiens, UniProt Q9H6Z9) IC50 data
Sequence (Q9H6Z9 whole entry): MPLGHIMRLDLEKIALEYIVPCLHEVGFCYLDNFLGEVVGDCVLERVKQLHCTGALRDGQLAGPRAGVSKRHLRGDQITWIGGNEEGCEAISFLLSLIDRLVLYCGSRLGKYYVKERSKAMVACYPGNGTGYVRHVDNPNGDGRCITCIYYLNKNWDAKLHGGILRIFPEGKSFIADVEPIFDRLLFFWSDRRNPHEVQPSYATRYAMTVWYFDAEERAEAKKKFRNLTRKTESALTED
Kindly format the answer as number then unit.

Take a look at these entries with their results.
[
  {
    "COMPOUND": "O=C(O)c1cnn(-c2nc(O)c3c(cnn3C3CCN(c4ccc(C(F)(F)F)cc4)CC3)n2)c1 [Example 436]",
    "OBSERVED": "330 nM"
  },
  {
    "COMPOUND": "C[C@H]1CC[C@H](n2nc(F)c3nc(-n4cc(C(=O)O)cn4)nc(O)c32)CC1 [Example 479]",
    "OBSERVED": "260 nM"
  },
  {
    "COMPOUND": "C[C@@H](c1cccc(F)c1)n1nc(C2CC2)c2nc(-n3cc(C(=O)O)cn3)nc(O)c21 [Example 458]",
    "OBSERVED": "1100 nM"
  }
]

(Q) # IC50 lookup, item CCC(c1ccc(F)c(F)c1)n1ncc2nc(-n3cc(C(=O)O)cn3)nc(O)c21 (stereo not shown) [Example 330]
(A) 580 nM

* * *

- TESTED_SYSTEM: human HIF-PHD2 (Homo sapiens)
- Sequence (Q9GZT9 2-426 limits assumed): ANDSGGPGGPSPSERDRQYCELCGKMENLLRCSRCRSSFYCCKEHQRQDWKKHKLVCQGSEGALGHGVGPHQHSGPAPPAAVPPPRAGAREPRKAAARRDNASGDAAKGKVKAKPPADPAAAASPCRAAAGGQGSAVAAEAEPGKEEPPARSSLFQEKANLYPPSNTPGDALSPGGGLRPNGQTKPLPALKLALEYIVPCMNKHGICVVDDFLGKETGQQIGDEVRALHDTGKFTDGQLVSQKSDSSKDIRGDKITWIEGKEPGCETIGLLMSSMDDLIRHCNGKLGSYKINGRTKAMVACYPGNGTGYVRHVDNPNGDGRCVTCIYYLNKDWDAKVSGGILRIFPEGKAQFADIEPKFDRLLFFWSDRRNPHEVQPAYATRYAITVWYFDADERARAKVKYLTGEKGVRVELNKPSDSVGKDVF
OUTCOME_MEASURE: IC50 (nM)
Express your answer in nM, writing the number without its unit.

[
  {
    "COMPOUND_STRING": "C[C@H]1CC[C@@H](n2ncc3nc(-n4cc(C(=O)O)cn4)nc(O)c32)CC1",
    "SCALE_UNIT": "nM",
    "IC50": 130
  }
]

(Q) Hi! What's the reported IC50 for `CC[C@@H](c1ccc(OC(F)(F)F)c(Cl)c1)n1ncc2nc(-n3cc(C(=O)O)cn3)nc(O)c21` on human HIF-PHD2 (Homo sapiens)?
(A) 14

(Q) Hi! What's the reported IC50 for `O=C(O)c1cnn(-c2nc(O)c3c(cnn3C[C@H]3CC[C@H](Oc4ccc(F)cc4)CC3)n2)c1` on human HIF-PHD2 (Homo sapiens)?
(A) 17

(Q) Hi! What's the reported IC50 for `COc1cc(Cn2ncc3nc(-n4cc(C(=O)O)cn4)nc(O)c32)ccc1-c1ccccc1F` on human HIF-PHD2 (Homo sapiens)?
(A) 13

(Q) Hi! What's the reported IC50 for `Cc1ccccc1-c1ccc(Cn2ncc3nc(-n4cc(C(=O)O)cn4)nc(O)c32)cc1` on human HIF-PHD2 (Homo sapiens)?
(A) 15

(Q) Hi! What's the reported IC50 for `O=C(O)c1cnn(-c2nc(O)c3c(n2)c(F)nn3CC2CCC3(CC2)CC3)c1` on human HIF-PHD2 (Homo sapiens)?
(A) 12

(Q) Hi! What's the reported IC50 for `O=C(O)c1cnn(-c2nc(O)c3c(cnn3CCOc3cccc4ccccc34)n2)c1` on human HIF-PHD2 (Homo sapiens)?
(A) 32

(Q) Hi! What's the reported IC50 for `Cc1nn(CC2CCCC2)c2c(O)nc(-n3cc(C(=O)O)cn3)nc12` on human HIF-PHD2 (Homo sapiens)?
(A) 50

* * *

human HIF-PHD2 (Homo sapiens) IC50 data
Express your answer in nM, writing the number without its unit.

(Q) Hi! What's the reported IC50 for `O=C(O)c1cnn(-c2nc(O)c3c(cnn3Cc3ccc(F)c(Cl)c3)n2)c1` on human HIF-PHD2 (Homo sapiens)?
(A) 22

* * *

human HIF-PHD3 (Homo sapiens, UniProt Q9H6Z9) log10 of IC50 data
Values reflect log10 of reported IC50 (nM).

Take a look at these entries with their results.
[
  {
    "COMPOUND": "O=C(O)c1cnn(-c2nc(O)c3c(cnn3CC3CCC4(CC3)CC4)n2)c1",
    "log10 of IC50": 2.46
  },
  {
    "COMPOUND": "CC(C)[C@H]1CC[C@H](C)C[C@H]1n1ncc2nc(-n3cc(C(=O)O)cn3)nc(O)c21",
    "log10 of IC50": 2.92
  },
  {
    "COMPOUND": "O=C(O)c1cnn(-c2nc(O)c3nn(Cc4ccc5ccccc5c4)cc3n2)c1",
    "log10 of IC50": 2.18
  },
  {
    "COMPOUND": "O=C(O)c1cnn(-c2nc(O)c3nn(Cc4ccc(-c5ccccc5)cc4F)cc3n2)c1",
    "log10 of IC50": 1.83
  },
  {
    "COMPOUND": "C[C@@H](c1ccc(C(F)(F)F)cc1)n1nc(F)c2nc(-n3cc(C(=O)O)cn3)nc(O)c21",
    "log10 of IC50": 2.74
  }
]

(Q) Hi! What's the reported log10 of IC50 for O=C(O)c1cnn(-c2nc(O)c3c(cnn3C(c3cc(F)cc(F)c3)C3CC3)n2)c1 (stereo not shown) on human HIF-PHD3 (Homo sapiens, UniProt Q9H6Z9)?
(A) 2.86

(Q) Hi! What's the reported log10 of IC50 for `C[C@@H](c1ccc(F)c(Cl)c1)n1nc(C2CC2)c2nc(-n3cc(C(=O)O)cn3)nc(O)c21` on human HIF-PHD3 (Homo sapiens, UniProt Q9H6Z9)?
(A) 3.00

(Q) Hi! What's the reported log10 of IC50 for Cc1cc(C)cc(C(C)n2ncc3nc(-n4cc(C(=O)O)cn4)nc(O)c32)c1 (stereo not shown) [Example 309] on human HIF-PHD3 (Homo sapiens, UniProt Q9H6Z9)?
(A) 2.83

(Q) Hi! What's the reported log10 of IC50 for `C[C@H]1CC[C@H](n2ncc3nc(-n4cc(C(=O)O)cn4)nc(O)c32)CC1` on human HIF-PHD3 (Homo sapiens, UniProt Q9H6Z9)?
(A) 2.70

(Q) Hi! What's the reported log10 of IC50 for `O=C(O)c1cnn(-c2nc(O)c3c(cnn3Cc3cccc(-c4ccccc4)c3F)n2)c1` on human HIF-PHD3 (Homo sapiens, UniProt Q9H6Z9)?
(A) 2.40

(Q) Hi! What's the reported log10 of IC50 for `Cc1nn([C@@H](C)c2cc(F)ccc2F)c2c(O)nc(-n3cc(C(=O)O)cn3)nc12` on human HIF-PHD3 (Homo sapiens, UniProt Q9H6Z9)?
(A) 3.18

(Q) Hi! What's the reported log10 of IC50 for `CC(C)(Cc1ccc2ccccc2c1)Cn1ncc2nc(-n3cc(C(=O)O)cn3)nc(O)c21` on human HIF-PHD3 (Homo sapiens, UniProt Q9H6Z9)?
(A) 2.57

(Q) Hi! What's the reported log10 of IC50 for `C[C@@H](c1ccc(C(F)(F)F)c(F)c1)n1ncc2nc(-n3cc(C(=O)O)cn3)nc(O)c21` on human HIF-PHD3 (Homo sapiens, UniProt Q9H6Z9)?
(A) 2.65

(Q) Hi! What's the reported log10 of IC50 for CC(C)C(c1cccc(C(F)(F)F)c1)n1ncc2nc(-n3cc(C(=O)O)cn3)nc(O)c21 (stereo not shown) [Example 362] on human HIF-PHD3 (Homo sapiens, UniProt Q9H6Z9)?
(A) 3.18

(Q) Hi! What's the reported log10 of IC50 for `O=C(O)c1cnn(-c2nc(O)c3c(n2)c(F)nn3Cc2ccc3ccccc3c2)c1` on human HIF-PHD3 (Homo sapiens, UniProt Q9H6Z9)?
(A) 2.48

(Q) Hi! What's the reported log10 of IC50 for `CCC(CC)Cn1ncc2nc(-n3cc(C(=O)O)cn3)nc(O)c21` on human HIF-PHD3 (Homo sapiens, UniProt Q9H6Z9)?
(A) 2.94
